# Tested on: MDA-N
# assay.text: NCI tumour cell line growth inhibition, 48 h
property.name: TGI

Using the record for COCOC1C=CCCCC2=CC(C)=C(CC1)O2 (configuration not stated) , report its TGI. > 100 µM

Same question, CC1CN=C(N(C(=O)Nc2ccc(Cl)c(Cl)c2)c2ccccc2)S1 (configuration not stated) this time > 100 µM

Same question, CN(C)c1ncnc2c1ncn2CCn1cnc2c(N(C)C)ncnc21 this time > 100 µM

---
Using the record for O=C1NC(N/N=C\C(O)C(O)C(O)C(O)CO)=N/C1=C/c1ccc(Cl)cc1 (configuration not stated) , report its TGI. > 100 µM

Same question, [N-]=[N+]=CC(=O)OC1Cc2ccccc2C1 this time > 100 µM

Same question, CCOC(=O)C(CCN1CCC2(CC1)C(=O)N(C)CN2c1ccccc1)C(=O)OCC this time > 100 µM

Same question, NCCc1cc(O)c(O)cc1O this time 47 µM

Same question, CC12CCC3c4ccc(O)cc4CCC3C1C/C(=N\O)C2O (configuration not stated) this time > 100 µM

Same question, O=c1nc(N2CCNCC2)oc2cc(Cl)oc(=O)c12 this time 9.06 µM

Same question, CCC(=O)O[C@H]1CC[C@H]2[C@@H]3CCC4=C/C(=N/OC(=O)c5cccc6cc7ccccc7nc56)CC[C@]4(C)[C@H]3CC[C@]12C this time > 100 µM

Same question, CC(C)C(C/C=C1\CC(CO)(COC(=O)C(C)(C)C)OC1=O)C(C)C (configuration not stated) this time 17.6 µM

Same question, COC(=O)c1cc2c(s1)-c1nccc3c1c(nc1ccccc13)C2=O this time > 100 µM

Same question, O=C(NNC(=O)c1ccccc1O)c1cccc(Br)c1 this time > 100 µM

Same question, CCc1nc(N)nc(N)c1-c1ccc([N+](C)(C)C)cc1 this time > 100 µM

Same question, CCOC(=O)/C=C(/C(=O)OCC)n1cnc2c(=O)[nH]c(NC(C)=O)nc21 this time > 100 µM

Same question, O=C(CC(C(=O)c1ccsc1)c1ccccc1)c1ccccc1 (configuration not stated) this time > 100 µM
